assayed_system: MS2 coat protein, dlFG mutant (Escherichia phage MS2, UniProt P03612, del68-81insG)
method_summary: 4 mM Mg2+; no ligand; RNA-MaP array; 100 mM Tris-HCl pH 7.5, 80 mM KCl, 4 mM MgCl2, 0.1 mg/mL BSA, 1 mM DTT, 0.01 mg/mL yeast tRNA, 0.01% Tween-20; protein 1.5 nM to 3 uM; 37 C (Table S3)
condition_set: chain copies: 2; label: tethered by stalled RNA polymerase
Parameter: Kd. Scope: all listed entries.

{"binder": "Eterna 7744734 (Exclusion - Tryptophan A) (ssRNA) RNA: CGUGAAUGUCGUCAGUCAUCGGUCCAUGCACGAGGACCGGUACGGCCGCCACUCGAGCGUGGCAGUGAUGUUGCCAGCGCACUAA", "Kd": "> 3000 nM"}
{"binder": "Eterna 7696143 (Exclusion - Theophylline B) (ssRNA) RNA: UGAUACCAGACUGAUACCAGCCAGUGAUGUUGGCUAAUCCAAGAAGGAGUCAAAGACUCCGGCCCUUGGCAGCAGUCUGGUAUCU", "Kd": "> 3000 nM"}
{"binder": "Eterna 7689684 (Same State - Theophylline A) (ssRNA) RNA: UGGAGUUGACGAAAAGUCAACUCCUGAGAUACCAGUGACGAAAGUCACCCUUGGCAGCUCACUGCCAGUGAUGUUGGAAAUAAAA", "Kd": "> 3000 nM"}
{"binder": "Eterna 6122145 (Exclusion NG 2) (ssRNA) RNA: AAAUUUAACGAAGGAUAUGCUGACAUGAGGAUCACCCAUGUGUGCUUUGUGUUGCUGAAAUGGGAGCAGAAGGUCGUAUACAUA", "Kd": "118 nM"}
{"binder": "Eterna 7716457 (Exclusion - Theophylline B) (ssRNA) RNA: CGUUUAUAGCAGGAUACCAGUACCCAUUAUGUACGUUUAUAGUAGAGUGAUGUUCUAAAGUACCCUUGGCAGCUUCCCGUGACCC", "Kd": "> 3000 nM"}
